compounds and their reported Minus-HF (%)
- EXPERIMENT SUMMARY: Photostability: xenon arc weathering of chromophore solutions, LCMS analysis
- Format: physicochemical
- CONDITION PARAMETERS: 10 wt % in Rhodiasolv IRIS; xenon arc, 82° C. bp; linearly interpolated to 0.5 MJ/m2 @ 340 nm
PROPERTY MEASURED: Minus-HF (%)

COMPOUND STRUCTURE	PROPERTY MEASURED	ENDPOINT RESULT
CCOC(=O)CCCOc1cc2oc(-c3ccc(C(C)(C)C)cc3)c(C3=C(c4cc(-c5cc6c(s5)C(C)(C)CCC6(C)C)sc4-c4cc5c(s4)C(C)(C)CCC5(C)C)C(F)(F)C(F)(F)C3(F)F)c2cc1OCCCC(=O)OCC	Minus-HF (%)	0.0
COCCOc1cc2oc(-c3ccc(C(C)(C)C)cc3)c(C3=C(c4cc(-c5ccc(C(C)(C)C)s5)sc4-c4ccc(C(C)(C)C)s4)C(F)(F)C(F)(F)C3(F)F)c2cc1OCCOC	Minus-HF (%)	14.9
COCCCOc1cc2oc(-c3ccc(C(C)(C)C)cc3)c(C3=C(c4cc(-c5cc(C(C)(C)C)cs5)sc4-c4cc(C(C)(C)C)cs4)C(F)(F)C(F)(F)C3(F)F)c2cc1OCCCOC	Minus-HF (%)	0.0
CC(C)(C)c1ccc(-c2oc3cc(OCCN4CCOC4=O)c(OCCN4CCOC4=O)cc3c2C2=C(c3cc(-c4cc5c(s4)C(C)(C)CCC5(C)C)sc3-c3cc4c(s3)C(C)(C)CCC4(C)C)C(F)(F)C(F)(F)C2(F)F)cc1	Minus-HF (%)	0.0
COCCCOc1cc2oc(-c3ccc(C(C)(C)C)cc3)c(C3=C(c4cc(-c5cc6c(s5)C(C)(C)CCC6(C)C)sc4-c4cc5c(s4)C(C)(C)CCC5(C)C)C(F)(F)C(F)(F)C3(F)F)c2cc1OCCCOC	Minus-HF (%)	0.0
CCOC(=O)CCCOc1cc2oc(-c3ccc(C(C)(C)C)cc3)c(C3=C(c4cc(-c5cc(C(C)(C)C)cs5)sc4-c4cc(C(C)(C)C)cs4)C(F)(F)C(F)(F)C3(F)F)c2cc1OCCCC(=O)OCC	Minus-HF (%)	0.0
